Give measured growth inhibition for each item. Keep answers brief.
Experiment: NCI Yeast Anticancer Drug Screen. Data for the sgs1 mgt1 strain (AID 161);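 further: 0% = growth of cultures given vehicle only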
Details: S. cerevisiae sgs1 mgt1 strain, at 50.0 µM, stronger effect = higher value
This is part of a sample that, as a whole, favours compounds with a hit. Of some 79,000 tested, about 15% had one in any assay.
# unit: % | format: bare number

Dear colleague, please send me the reported growth inhibition for `CCOC(=O)C(C#N)=C1CCN(C)CC1` when you can. -0.75

Dear colleague, please send me the reported growth inhibition for `CCCOCc1cn[nH]n1` when you can. 8.3

Dear colleague, please send me the reported growth inhibition for `CC(C)C(C)(C)C(=O)C(C)(C)C(C)(C)C` when you can. -9.7

Dear colleague, please send me the reported growth inhibition for COC(C(=O)C(O)C(C)O)C1Cc2cc3cc(OC4CC(OC5CC(O)C(O)C(C)O5)C(O)C(C)O4)c(C)c(O)c3c(O)c2C(=O)C1OC1CC(OC2CC(O)C(OC3CC(C)(O)C(O)C(C)O3)C(C)O2)C(O)C(C)O1 (stereo unspecified) when you can. -12.5

Dear colleague, please send me the reported growth inhibition for `CC(=O)N(CCCCCCN(C(C)=O)C(C)=O)C(C)=O` when you can. -0.5

Dear colleague, please send me the reported growth inhibition for `COc1ccc(Br)c2c1C(=O)CC2` when you can. 29.4

Dear colleague, please send me the reported growth inhibition for `CCOC(=O)c1cc(Cl)c(O)c(Cl)c1` when you can. 1.4

Dear colleague, please send me the reported growth inhibition for `CCc1ccccc1C(=O)N(CC)CC` when you can. 16.6

Dear colleague, please send me the reported growth inhibition for `Cc1cc(CO)c(O)c(CO)c1` when you can. 0.1

Dear colleague, please send me the reported growth inhibition for `CCOP(=O)(NC(c1ccccc1)c1ccccc1)OCC` when you can. 30.6

Dear colleague, please send me the reported growth inhibition for `CC(=O)NNC(=S)N/C=C/c1c(C)ccc([N+](=O)[O-])c1[N+](=O)[O-]` when you can. -28.4
